Property: IC50; scope: individual compounds
# Tested on: MDA-MB-231
# testProtocol: Antiproliferative activity against human MDA-MB-231 cells incubated for 48 hrs by MTT assay
# Type: functional, cell-based
# measurementSetup: MDA-MB-231, 48 h
measurementType: IC50 (µM)

compoundstructure=NS(=O)(=O)c1ccc(Nc2nccc(Nc3nc4ccc(F)cc4s3)n2)cc1 boundoperator== quantitativeresult=1.8
compoundstructure=COc1ccc(Nc2ncc(C)c(Nc3nc4ccccc4s3)n2)cc1 boundoperator=> quantitativeresult=50
compoundstructure=CS(=O)(=O)c1ccc(Nc2ncc(F)c(Nc3nc4ccccc4s3)n2)cc1 boundoperator== quantitativeresult=4.98
compoundstructure=Cc1ccc2nc(Nc3ccnc(Nc4ccc(S(C)(=O)=O)cc4)n3)sc2c1 boundoperator== quantitativeresult=4.44
compoundstructure=Cc1cnc(Nc2ccc(S(N)(=O)=O)cc2)nc1Nc1nc2ccc(Cl)cc2s1 boundoperator== quantitativeresult=9.42
